Test: method code SF-AS, from DOI: 10.1016/j.ejmech.2011.01.053, PMID: 21334792
Details: pH 7.4
observedProperty: logD

In the examples that follow, each entry is paired with its recorded logD.
>  <molecule>
CC(C)(C)OC(=O)N1CCCC1C(=O)O/N=C1\c2ccccc2-c2c1c(-n1ccnc1)nc1ccc(Br)cc21 (stereo not given)

>  <logD>
1.28

$$$$
>  <molecule>
ON=C1c2ccccc2-c2c1c(C1C=CN=C1)nc1ccc(Br)cc21 (stereo not given)

>  <logD>
0.23

$$$$
>  <molecule>
CC(C)(C)C(=O)NC(C(=O)ON=C1c2ccccc2-c2c1c(N1CCN(c3ccccn3)CC1)nc1ccc(Br)cc21)C(C)(C)C (stereo not given)

>  <logD>
1.5

$$$$
>  <molecule>
CC1(OC(=O)CC(F)(F)F)c2ccccc2-c2c1c(-n1ccnc1)nc1ccc(Br)cc21 (stereo not given)

>  <logD>
1.83

$$$$
>  <molecule>
CC(=O)ON=C1c2ccccc2-c2c1c(C1C=CN=C1)nc1ccc(Br)cc21 (stereo not given)

>  <logD>
1.11

$$$$
>  <molecule>
CCCCCC(=O)ON=C1c2ccccc2-c2c1c(C1C=CN=C1)nc1ccc(Br)cc21 (stereo not given)

>  <logD>
2.11

$$$$

(a) CC(C)(C)OC(=O)NC(Cc1cccc(F)c1)ON=C1c2ccccc2-c2c1c(N1CCN(c3ccccn3)CC1)nc1ccc(Br)cc21 (stereo not given)
(b) CC1(O)c2ccccc2-c2c1c(-n1ccnc1)nc1ccc(Br)cc21 (stereo not given)
(c) CCC(=O)ON=C1c2ccccc2-c2c1c(N1CCN(c3ccccn3)CC1)nc1ccc(Br)cc21
Give the ascending ranking of the items by reported logD. I'd appreciate it if you listed the labels in the requested order. a, b, c
(a: 1.14, b: 1.73, c: 2.65)

---

Assay: method code SF-AS, from DOI: 10.1016/j.ejmech.2011.01.053, PMID: 21334792
Conditions: pH 7.4
observedProperty: logD

In the examples that follow, each entry is paired with its recorded logD.
>  <compound>
CCCCCC(=O)ON=C1c2ccccc2-c2c1c(N1CCN(c3ccc[nH]3)CC1)nc1ccc(Br)cc21

>  <logD>
2.06

$$$$
>  <compound>
CCCC(=O)O/N=C1\c2ccccc2-c2c1c(-n1ccnc1)nc1ccc(Br)cc21

>  <logD>
1.17

$$$$
>  <compound>
CC(=O)NCC(=O)ON=C1c2ccccc2-c2c1c(N1CCN(c3ccccn3)CC1)nc1ccc(Br)cc21

>  <logD>
1.18

$$$$

(P) CC(C)(C)OC(=O)NCC(=O)ON=C1c2ccccc2-c2c1c(N1CCN(c3ccccn3)CC1)nc1cccc(Br)c21
(Q) O=C(C=Cc1ccco1)ON=C1C2=C(c3ccccc31)c1c(Br)cccc1NC2N1CCN(c2ccccn2)CC1 (stereo not drawn)
Which value of logD is numerically greater: that of P or that of Q ? Please identify the chosen entry by its label. Q
(Q: 1.43, P: 0.7)

---

Experiment: method code SF-AS, from DOI: 10.1016/j.ejmech.2011.01.053, PMID: 21334792
Conditions: pH 7.4
observedProperty: logD

>  <compound>
CCCCC(=O)ON=C1c2ccccc2-c2c1c(C1C=CN=C1)nc1ccc(Br)cc21 (stereo not drawn)

>  <logD>
1.64

$$$$
>  <compound>
O=C(CCCCBr)ON=C1c2ccccc2-c2c1c(N1CCN(c3ccccn3)CC1)nc1ccc(Br)cc21

>  <logD>
1.47

$$$$
>  <compound>
CN(C)C(=O)ON=C1c2ccccc2-c2c1c(N1CCN(c3ccccn3)CC1)nc1ccc(Br)cc21

>  <logD>
2.34

$$$$

The reported numbers originate from the SangsterLogP compilation.
